- Tested on: Vero E6 infected with SARS-CoV-2
- Procedure Summary: inhibition of SARS-CoV-2 cytopathic effect; higher = more antiviral protection, active = above 15
- Condition Set: 1 nM; 48 h
Readout Type: inhibition of SARS-CoV-2 cytopathic effect (%)
Respond with the bare value in %.

Consider the reported inhibition of SARS-CoV-2 cytopathic effect for these compounds:
CCC(=O)O[C@]1(C(=O)CCl)[C@@H](C)C[C@H]2[C@@H]3C[C@H](F)C4=CC(=O)C=C[C@]4(C)[C@@]3(F)[C@@H](O)C[C@@]21C [halobetasol-propionate]
-3.17
COc1cccc(-c2cc(NCc3ccc4c(c3)OCO4)nc(N)n2)c1
0.39
COc1ccc(-c2nc3cc(C4=NNC(=O)CC4C)ccc3[nH]2)cc1 (stereo unspecified)
2.75
O=C(CCCCCCCC(=O)NCCO)NCCO
-2.2
CN1CCN(C(=O)O[C@H]2c3nccnc3C(=O)N2c2ccc(Cl)cn2)CC1
0.72

Attention now turns to another entry.
inhibition of SARS-CoV-2 cytopathic effect on Vero E6 infected with SARS-CoV-2 for CC1(C)[C@H]2CC[C@]1(C)[C@@H](O)[C@H]2O [cis-exo-camphanediol-2,3] is 1.51
